- Tested on: SNB-19
- MEASUREMENT DESCRIPTION: NCI tumour cell line growth inhibition, 48 h
The source made the active and inactive calls. Cut-off read from the data, not from the text of the source: active = GI50 up to about 1.1 µM and inactive = higher.
Outcome codes: 1 = active, -1 = inactive

INSERT INTO measurements (molecule, category) VALUES
  ('CC(=O)c1c(O)c2c([nH]c1=O)CCCC2', -1),
  ('CC(C)(C)OC(=O)C1=C(N)N(Cc2ccccc2)C2(C)C=CC(=O)C=C12 (centres undefined)', -1),
  ('Cn1c(N=P(c2ccccc2)(c2ccccc2)c2ccccc2)c([N+](=O)[O-])c(=O)n(C)c1=O', -1),
  ('COc1cc2c(cc1OC)CCc1cc(OC)c(OC)cc1CC2', -1),
  ('CCNC(=O)O/N=C1\CCC2[C@@H]3CC=C4C[C@@H](OC5CCCCO5)CC[C@]4(C)C3CC[C@]12C (some centres undefined)', 1),
  ('O=C(CCCCCCCCC(=O)OCC1OC(n2cnc3c(=O)[nH]cnc32)C(O)C1O)OCC1OC(n2cnc3c(=O)[nH]cnc32)C(O)C1O (centres undefined)', -1),
  ('C/C1=C\CC[C@@]2(C)O[C@@H]2C[C@@H]2[C@H](C/C(C)=C/CC1)OC(=O)C21CC1', -1),
  ('O=C1/C(=C/c2ccc(Cl)cc2)CSC/C1=C\c1ccc(Cl)cc1', -1),
  ('COc1cc2cccc(/N=C\c3ccccc3Cl)c2cc1OC', -1);

====

Each entry below carries its recorded GI50.
- System: DMS-273
- MEASUREMENT DESCRIPTION: NCI tumour cell line growth inhibition, 48 h
Activity calls are given as the source filed them. Cut-off read from the data, not from the text of the source: active = GI50 up to about 1.1 µM and inactive = higher.
READOUT NAME: GI50

INSERT INTO assay_data (compound, meas_value) VALUES
  ('C=C[C@]1(C)CCC2=C(CCC3C2(C)CCC[C@]3(C)CO)C1 (stereo partly specified)', '41.8 µM (inactive)'),
  ('CCCCCC[C@@H]1CCC2C(CO)[C@@H](O)CC[C@@H]2C1 (stereo partly specified)', '20.2 µM (inactive)'),
  ('Cc1cc(O)nc(NN2C(Cl)C(=O)C2c2cccc(Cl)c2)n1 (stereo unspecified)', '17.1 µM (inactive)'),
  ('Cc1cccc(NC(=O)CSc2nnc(Cc3ccccc3)o2)c1', '> 100 µM (inactive)'),
  ('O=C(CC1(O)C(=O)Nc2c(Cl)ccc(Cl)c21)c1ccc(Cl)cc1 (stereo unspecified)', '27 µM (inactive)'),
  ('O=C(/C=C/c1ccccc1)NC1C=Nc2ccc([N+](=O)[O-])cc2NC1=O (stereo unspecified)', '21.6 µM (inactive)'),
  ('Cn1c(=O)oc2cc(C3CCC(=O)N3Cc3csc(-c4ccccc4)n3)ccc21 (stereo unspecified)', '89.5 µM (inactive)'),
  ('O=C(CC1(O)C(=O)Nc2ccccc21)c1ccccc1Cl (stereo unspecified)', '> 100 µM (inactive)'),
  ('Cc1ccccc1C1CC(c2ccccc2)=NO1 (stereo unspecified)', '> 100 µM (inactive)'),
  ('C[n+]1ccc(Nc2ccc(NC(=O)c3ccc(Nc4cc[n+](C)c5ccc([N+](=O)[O-])cc45)cc3[N+](=O)[O-])cc2)cc1', '27.2 µM (inactive)'),
  ('N/N=C(\CCN1CCCC1)CC(c1ccccc1)c1c(O)c2ccccc2oc1=O (stereo unspecified)', '> 100 µM (inactive)');

====

Each entry below carries its recorded GI50.
- Test system: CAKI-1
- MEASUREMENT DESCRIPTION: NCI tumour cell line growth inhibition, 48 h
Active and inactive are the calls of the source. Rule as the data show it: active = GI50 up to about 1.1 µM and inactive = higher.
READOUT NAME: GI50

INSERT INTO results (molecule, meas_value) VALUES
  ('Cn1c(=O)oc2cc(C3CCC(=O)N3Cc3csc(-c4ccccc4)n3)ccc21 (stereo unspecified)', '> 100 µM (inactive)'),
  ('O=C1NC(=S)N(c2ccccc2)C1=O', '> 100 µM (inactive)'),
  ('O=C(Nc1cccc(C(F)(F)F)c1)c1cc(Br)cc(Br)c1O', '2.3 µM (inactive)'),
  ('CCCc1n[nH]c(CCC(=O)N(Cc2ccccc2)Cc2ccccc2)c1CC', '> 100 µM (inactive)'),
  ('CC(C)(C)OC(=O)C1=C(N)N(Cc2ccccc2)C2(C)C=CC(=O)C=C12 (stereo unspecified)', '1.83 µM (inactive)'),
  ('CCCNCCCCC(NC(C)=O)C(=O)NCc1ccccc1 (stereo unspecified)', '> 100 µM (inactive)');

====

- Test system: HT-29
- MEASUREMENT DESCRIPTION: NCI tumour cell line growth inhibition, 48 h
The source made the active and inactive calls. Rule as the data show it: active = GI50 up to about 1.1 µM and inactive = higher.
READOUT NAME: GI50

INSERT INTO measurements (compound, meas_value) VALUES
  ('CN(C)CCn1c2c3ccccc3ccc2c2oc(=O)c3ccccc3c21', '4.86 µM (inactive)'),
  ('COc1ccc(NC(C)=O)cc1N1C(=O)/C(=C\c2ccccc2)SC1c1cc(OC)c(OC)c(OC)c1 (stereo unspecified)', '32.4 µM (inactive)'),
  ('Cn1c(=O)oc2cc(C3CCC(=O)N3Cc3csc(-c4ccccc4)n3)ccc21 (stereo unspecified)', '79.1 µM (inactive)'),
  ('C[C@H](N[C@H]1CCC[C@]1(O)C#Cc1ccc2c(c1)OCO2)c1ccccc1', '> 25 µM (inactive)'),
  ('CC(=O)c1ccc(NC(=O)C(=O)Nn2c(S)nc3ccccc3c2=O)cc1', '> 100 µM (inactive)'),
  ('O=C(/C=C/c1ccc(Cl)cc1)c1ccncc1', '22.3 µM (inactive)'),
  ('C=CCNC(=S)N1CC(C)C(=O)Nc2ccccc21 (stereo unspecified)', '> 100 µM (inactive)'),
  ('S=C1NCCN1C(=S)NC1CCCCC1', '21.8 µM (inactive)'),
  ('O=C1NC2OC(CO)C(O)C(O1)C2O (stereo unspecified)', '> 100 µM (inactive)'),
  ('O=C1C2CC(Cl)C(SSC3CC4C(=O)N(SC(Cl)(Cl)C(Cl)Cl)C(=O)C4CC3Cl)CC2C(=O)N1SC(Cl)(Cl)C(Cl)Cl (stereo unspecified)', '1.77 µM (inactive)'),
  ('CCCCNN', '> 100 µM (inactive)');

====

- Tested on: HOP-18
- MEASUREMENT DESCRIPTION: NCI tumour cell line growth inhibition, 48 h
Calls of active or inactive are those of the source. No stated cut-off is given here; in the data, active = GI50 up to about 1.1 µM and inactive = higher.
Outcome codes: class 1 = active, class 0 = inactive

INSERT INTO assay_data (compound, category) VALUES
  ('O=C(/C=C\c1ccccc1O)c1ccc(O)cc1O', 'class 0'),
  ('CC1C=C(OC(=O)c2ccccc2)C(=O)C(n2cc(F)c(=O)[nH]c2=O)O1 (stereo unspecified)', 'class 0'),
  ('O=C1NC2OC(CO)C(O)C(O1)C2O (stereo unspecified)', 'class 0'),
  ('CC(=O)c1cccc(NC(=O)/C(=N\NC(C)(C)C)c2c(O)c3ccccc3oc2=O)c1', 'class 0'),
  ('CCCCCCCCCCCCSC(=S)c1c(C)[nH]n(CCCCCCCCCCCC)c1=O', 'class 0'),
  ('O=C(CCCCCCCCC(=O)OCC1OC(n2cnc3c(=O)[nH]cnc32)C(O)C1O)OCC1OC(n2cnc3c(=O)[nH]cnc32)C(O)C1O (stereo unspecified)', 'class 0'),
  ('CN(C)CCC(/C=C/c1ccccc1)=N\Nc1ccc(Cl)c(Cl)c1', 'class 0'),
  ('COC(=O)C(=O)C(CC(=O)Nc1c(C)cccc1C)C(=O)OC (stereo unspecified)', 'class 0'),
  ('NC(CCCCNCc1ccccc1O)C(=O)O (stereo unspecified)', 'class 0'),
  ('Brc1ccccc1/C=N\C12CC3CC(CC(C3)C1)C2', 'class 0'),
  ('COc1cc(CCc2ccncc2)cc(OC)c1OC', 'class 0'),
  ('Nc1nc(Cl)nc2c1ncn2C1CC(O)C(CO)O1 (stereo unspecified)', 'class 0'),
  ('O=C1CCC(=O)N2CCCCN12', 'class 0'),
  ('COc1cc2c(cc1O)N=C[C@@H]1CC[C@@H](O)N1C2=O.COc1cc2c(cc1O)N=C[C@@H]1CC[C@H](O)N1C2=O', 'class 1'),
  ('O=C1C=C(Nc2cccnc2)c2ccccc2C1=O', 'class 0'),
  ('CCNC(=O)O/N=C1\CCC2[C@@H]3CC=C4C[C@@H](OC5CCCCO5)CC[C@]4(C)C3CC[C@]12C (stereo partly specified)', 'class 0'),
  ('O=C(CC1(O)C(=O)Nc2c(Cl)ccc(Cl)c21)c1ccc(Cl)cc1 (stereo unspecified)', 'class 0'),
  ('CC(=O)c1ccc(-c2ccc(C(C)=O)s2)s1', 'class 0'),
  ('CC(=O)c1ccc(NC(=O)C(=O)Nn2c(S)nc3ccccc3c2=O)cc1', 'class 0'),
  ('Cc1ccc(S(=O)(=O)OC2CS[S+]([O-])CC2OS(=O)(=O)c2ccc(C)cc2)cc1 (stereo unspecified)', 'class 0'),
  ('Cc1c(Cl)cccc1NC(=O)/C(Cl)=C(\Cl)C(=O)O', 'class 0'),
  ('C=C1C(=O)O[C@@H]2[C@H](O)[C@@H](C)[C@@H]3C=CC(=O)[C@@]3(C)[C@@H](OC(=O)/C(C)=C/C)[C@H]12', 'class 0'),
  ('N#CC(C(=O)C(=O)C(C#N)c1ccc(Br)cc1)c1ccc(Br)cc1 (stereo unspecified)', 'class 0'),
  ('Nc1nc2c(c(=O)[n-]1)[n+](CCO)cn2C1OC(CO)C(O)C1O (stereo unspecified)', 'class 0'),
  ('CC1(C)C2CCC3(C2)CS(=O)(=O)N2OC231 (stereo unspecified)', 'class 0'),
  ('CC(C)(C)c1ccc2c(c1)OP1(Oc3c(Cl)cc(Cl)c4cccnc34)(O2)Oc2ccc(C(C)(C)C)cc2O1', 'class 0');

Just for reference, ChEMBL document CHEMBL1201862 is where these values come from.
